Provenance of the data: patent US20260242419A1

molecular target: Recombinant human IL-1β (BioLegend 579404) (human, UniProt P01584 117-269); assay: cell-based or functional assay
Starred links: 1 amine or outer side, 2 acyl side, 3 side chain; linkers in the order of their positions; H or OH if unused. Non-standard residues stand in square brackets, D forms with d. dPro(4R-(4-pyridylmethyl)) = O=C(O)[C@H]1C[C@@H](Cc2ccncc2)CN1; Trp(βS-Me,4-F) = C[C@@H](c1c[nH]c2cccc(F)c12)[C@H](N)C(=O)O; 3Aminoazetidine3carboxyl = O=C(C1(N[*:1])CN([*:3])C1)[*:2]; Bip(4'-COOH) = N[C@@H](Cc1ccc(-c2ccc(C(=O)O)cc2)cc1)C(=O)O; Ala(1-bicyclo(1.1.1)pentyl) = N[C@@H](CC12CC(C1)C2)C(=O)O; dPro(4R-Bzl(4-F)) = O=C(O)[C@H]1C[C@@H](Cc2ccc(F)cc2)CN1; Ala(pyrimidin-5-yl) = N[C@@H](Cc1cncnc1)C(=O)O; Phe(4-COOH) = N[C@@H](Cc1ccc(C(=O)O)cc1)C(=O)O; Ala(2-pyrazinyl) = N[C@@H](Cc1cnccn1)C(=O)O; Pro(cis-4-F) = O=C(O)[C@@H]1C[C@H](F)CN1; 3Pal = N[C@@H](Cc1cccnc1)C(=O)O; 4Pal = N[C@@H](Cc1ccncc1)C(=O)O; αMeK = C[C@](N)(CCCCN)C(=O)O; Dab = NCC[C@H](N)C(=O)O; Dap = NC[C@H](N)C(=O)O; Aib = CC(C)(N)C(=O)O
measurementName: MRC5 IC50 (pM)

Some solved cases for reference:
[
  {
    "binder": "cyclo([Bip(4'-COOH)][4Pal][Phe(4-COOH)]G[Pro(cis-4-F)][Trp(βS-Me,4-F)][Aib]EW[Aib][Ala(2-pyrazinyl)]Q[Dab]G[dPro(4R-Bzl(4-F))]) [SEQ ID NO: 101]",
    "measurementName": "MRC5 IC50",
    "unitDescriptor": "pM",
    "recordedMeasurement": 21
  },
  {
    "binder": "cyclo([Bip(4'-COOH)][Ala(1-bicyclo(1.1.1)pentyl)][Phe(4-COOH)]G[Pro(cis-4-F)][Trp(βS-Me,4-F)][Aib]SW[Aib][Ala(pyrimidin-5-yl)]Q[Dab]G[dPro(4R-(4-pyridylmethyl))]) [SEQ ID NO: 44]",
    "measurementName": "MRC5 IC50",
    "unitDescriptor": "pM",
    "recordedMeasurement": 21
  },
  {
    "binder": "cyclo([Bip(4'-COOH)][4Pal][Phe(4-COOH)]G[Pro(cis-4-F)][Trp(βS-Me,4-F)][Aib]EW[Aib][3Pal]Q[Dab]G[dPro(4R-Bzl(4-F))]) [SEQ ID NO: 72]",
    "measurementName": "MRC5 IC50",
    "unitDescriptor": "pM",
    "recordedMeasurement": 27
  },
  {
    "binder": "cyclo([Bip(4'-COOH)][4Pal][Phe(4-COOH)]G[Pro(cis-4-F)][Trp(βS-Me,4-F)][Aib]SW[Aib][Ala(pyrimidin-5-yl)]Q[Dab]G[dPro(4R-(4-pyridylmethyl))]) [SEQ ID NO: 42]",
    "measurementName": "MRC5 IC50",
    "unitDescriptor": "pM",
    "recordedMeasurement": 21
  },
  {
    "binder": "cyclo([Bip(4'-COOH)][Ala(1-bicyclo(1.1.1)pentyl)][Phe(4-COOH)]G[Pro(cis-4-F)][Trp(βS-Me,4-F)][Aib]EW[Aib][4Pal]Q[Dap]G[dPro(4R-(4-pyridylmethyl))]) [SEQ ID NO: 48]",
    "measurementName": "MRC5 IC50",
    "unitDescriptor": "pM",
    "recordedMeasurement": 27
  }
]

[1] cyclo([Bip(4'-COOH)][4Pal][Phe(4-COOH)]G[Pro(cis-4-F)][Trp(βS-Me,4-F)][Aib]EW[αMeK][Ala(pyrimidin-5-yl)]Q[Dab]G[dPro(4R-Bzl(4-F))]) [SEQ ID NO: 67]
[2] cyclo([Bip(4'-COOH)][4Pal][Phe(4-COOH)]G[Pro(cis-4-F)][Trp(βS-Me,4-F)][3Aminoazetidine3carboxyl]EW[Aib][Ala(pyrimidin-5-yl)]Q[Dab]G[dPro(4R-Bzl(4-F))]) [SEQ ID NO: 20]
Q) Smaller MRC5 IC50 value, 1 vs 2 ? Give the chosen item's label as your response.
A) 1
(1: 21 pM, 2: 62 pM)
